target.or.test.system: Ybr033w (UniProt P38073)
Sequence: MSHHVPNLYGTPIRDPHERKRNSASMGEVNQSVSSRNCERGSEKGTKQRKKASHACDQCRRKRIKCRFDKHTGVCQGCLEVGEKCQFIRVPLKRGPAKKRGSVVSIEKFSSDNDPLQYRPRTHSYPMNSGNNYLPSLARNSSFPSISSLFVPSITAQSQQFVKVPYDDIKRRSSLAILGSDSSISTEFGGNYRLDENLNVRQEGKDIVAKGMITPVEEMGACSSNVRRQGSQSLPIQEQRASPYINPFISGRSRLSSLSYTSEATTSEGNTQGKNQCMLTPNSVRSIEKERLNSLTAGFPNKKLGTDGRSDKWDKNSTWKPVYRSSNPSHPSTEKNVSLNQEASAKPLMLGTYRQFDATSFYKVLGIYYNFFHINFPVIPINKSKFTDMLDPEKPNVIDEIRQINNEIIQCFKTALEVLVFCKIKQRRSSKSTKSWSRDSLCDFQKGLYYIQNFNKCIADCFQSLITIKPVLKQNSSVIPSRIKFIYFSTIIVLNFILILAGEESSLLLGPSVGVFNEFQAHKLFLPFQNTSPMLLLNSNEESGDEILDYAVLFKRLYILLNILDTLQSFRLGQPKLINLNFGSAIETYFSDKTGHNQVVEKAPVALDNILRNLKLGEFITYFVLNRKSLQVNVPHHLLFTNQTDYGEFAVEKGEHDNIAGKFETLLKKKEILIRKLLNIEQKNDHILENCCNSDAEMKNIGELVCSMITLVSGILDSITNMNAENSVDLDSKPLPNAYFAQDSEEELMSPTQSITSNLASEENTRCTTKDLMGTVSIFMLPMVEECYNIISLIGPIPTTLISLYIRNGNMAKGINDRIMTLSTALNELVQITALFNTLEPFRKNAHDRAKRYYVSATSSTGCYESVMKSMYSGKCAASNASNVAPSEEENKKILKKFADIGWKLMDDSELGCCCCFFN
protocol.description: PBM E-score (8-mer binding enrichment) (E-score (-0.5 to 0.5)); higher = stronger / more preferred TF binding
test.parameters: protein concentration: 200 nM; construct: GST-full length
In all, about 33,000 sequences were measured (“E-score (-0.5 to 0.5)”: median about -0.012, highest 2% from about 0.29 on). This is one part of a sample in which the highest values are shown more often than they occur.
property.name: PBM E-score
Give bare numbers.

Give me PBM E-score for each of these sequences, listed below.
1. ATATTCTG
2. CAATTATA
3. CCAGATCG
4. ATATTCGG

Result:
[0.157, 0.28, -0.0568, 0.0327]

Give me PBM E-score for each of these sequences, listed below.
1. TAATTATA
2. CTATTCCA

Result:
1. 0.382
2. 0.17

Give me PBM E-score for each of these sequences, listed below.
1. GAATTCAA
2. GCCATTTA
3. ATATTCCG
4. CCGTCGAG

Result:
1. 0.177
2. -0.0426
3. 0.428
4. 0.102

Give me PBM E-score for each of these sequences, listed below.
1. ACGCATTG
2. AATGGTCA
3. AATTCACT
4. CGTCTTCC

Result:
[-0.0453, 0.205, 0.249, -0.215]
